assay: soluble fraction after stress (log2 fold change); higher = more stays soluble; pooled small domains, quantitative proteomics; details: stress: 75 degC;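 note: 20 min heating vs room temperature control held 20 min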
Record Met whenever soluble fraction (log2) is at -0.2 or higher; record Not met when lower.

**Q:** Please check the record HMSQLSQIVDAFGGLRPFARALNKPPSTVQYWIEKGGIPASVVSPIMKLSEEKGLGLSRDQVSAAVS and state if its soluble fraction (log2) is at or above -0.2.
**A:** Met

**Q:** Kindly determine if soluble fraction (log2) recorded for HMGEVVSAPMPGTILSIKVSQGQTVKRGQVLLILEAMKMENEIVAPRDGVVVQISTTQGASVETGAPLVVL is above or exactly -0.2.
**A:** Not met

**Q:** Given the entry HMAKIEVENLEETILENLKANNGFMPYNDKTSPEEIYEVFHVSKKHFKNSLGGLMKKGLIFQNEKGTKL , answer whether its soluble fraction (log2) meets or surpasses -0.2.
**A:** Met

**Q:** Is the recorded value of soluble fraction (log2) equal to or greater than -0.2 for this sequence? HMKPGWEDIFRMNQIQLEDAVRTVNRDDTLAPTKKAYLIQNLLASRWIVGNQLQAQKDKTTE
**A:** Met

**Q:** Is reported soluble fraction (log2) greater than or equal to -0.2 here: HMSLAISGRNQLHGIIEEVRSDGLLSQIYLRVGDQVLTAVITRDAVAELKLKRGDTAVAIMKSTEVMIARE
**A:** Met

**Q:** Quick check, soluble fraction (log2) >= -0.2? HMSNIQLVENLYRLRKAHHYTQQEISDLLNISRQAYSNYETSKRTPDLDSLMRLADIYGVSLDQLVNHP
**A:** Not met

**Q:** Answer whether soluble fraction (log2) of HMIIVMKRNATETQIDHVVRWVESIGYRAHRSNGTEQTVVKAVGGERGGEELKYLAALSGVEKVVPIR is greater than or equal to -0.2.
**A:** Not met

**Q:** Is the recorded value of soluble fraction (log2) equal to or greater than -0.2 for this sequence? HMAEMLQDVLNMLSAKDREILVRYYYYYESVKQVAAEMQMSESAVKMRMSRARKKMQQELIDKG
**A:** Not met

**Q:** // inclusive: soluble fraction (log2) at least -0.2? input: HMDPTYYFNLYPNPSKDEVSLFTNFTGKINIEILDLAGKSILSDNPISTISLVSLKEGLYLVKVKS
**A:** Met

The reported numbers originate from the domain aggregation screens of Martell et al. (2025).
